# run-description: Determination of binding constants of inhibitor (NNIC) in Model B detergent, Suc-AAPF-pNA read-out
# Assay type: biochemical
# measurement-conditions: Ki of variant with the mutation relative to variant without the mutation, <1.0 beneficial
observable: Inhibitor-binding relative Kimutation, inhibitor binding in Model B

Using the record for S173P, S175P, F180Y, R224G: TY145 protease (SEQ ID NO 3) variant with these substitutions (protein, listed as Bacillus sp.) AVPSTQTPWGIKSIYNDQSITKTTGGSGIKVAVLDTGVYTSHLDLAGSAEQCKDFTQSNPLVDGSCTDRQGHGTHVAGTVLAHGGSNGQGVYGVAPQAKLWAYKVLGDNGSGYSDDIAAAIRHVADEASRTGSKVVINMSLGSSAKDSLIASAVDYAYGKGVLIVAAAGNSGPGPNTIGYPGGLVNAVAVAALENVQQNGTYRVADFSSRGNPATAGDYIIQEGDIEVSAPGASVESTWYTGGYNTISGTSMATPHVAGLAAKIWSANTSLSHSQLRTELQNRAKVYDIKGGIGAGTGDDYASGFGYPRVK , report its Inhibitor-binding relative Kimutation, inhibitor binding in Model B.
0.47
